- Test system: MIWI (PIWIL1) piRISC loaded with L1MC piRNA (30 nt);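 also: 1 nM active piRISC with 0.1 nM target library at 33 °C single turnover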
- assay-comment: pre-steady-state target cleavage rate (min^-1); MIWI and MILI are mouse PIWI proteins and EfPiwi is from a freshwater sponge; tags in brackets are library labels; higher = faster piRNA-guided slicing of the target;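 also: 1 nM active piRISC with 0.1 nM target library at 33 °C single turnover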
- condition-set: guide: L1MC piRNA 5'p-UAACUAAAUACUAUGCAAGCUGUAGGUCCU; auxiliary factor: none (no GTSF1)
In all, about 8,200 sequences were measured (“pre-steady-state target cleavage rate”: median about 0.024, highest 2% from about 1.3 on). What follows is part of a selection rich in the highest values, with near analogues and random picks from the rest.
Please respond with reported pre-steady-state target cleavage rate for every item in the list.
Give bare numbers.

INSERT INTO assay_data (residues, readout_value) VALUES
  ('UCCUGGAUGAGCUUGCUUAGUAUAUAGUUA', 0.0101),
  ('UCCUGGUACAGCUAGCAUAGUAAUUAGUUA', 0.00998),
  ('AGGACCUACAGCUUGCUUAGUAUAUAGUUA', 0.0291),
  ('UCCUGGAACAGCUUGCAAUGUAUUUAGUUA', 0.00723),
  ('UCCCCCUACAGCUUGCAUAGUAUUUAGUUA', 0.0819),
  ('UCGACCAUGAGCUUGCAUAGUAUUUAGUAA', 0.0343),
  ('UCCUGGUACAGCUUGCAAAGUAUUAAGUUA', 0.0147),
  ('UCCUGGAACAGCUUGCAUUGUAAUUAGUUA', 0.018);

Please report pre-steady-state target cleavage rate for every entry that follows.
1. AGGACCUACAGCUUGCAUAGAAUUUAGUUA
2. UGGACCUACAGCUUGCAUACUAAUUAGUUA

1: 0.0408; 2: 0.00958
